Taken from paper PMC6680840.

- system-name: BChE (EC 3.1.1.8, from human serum) (Homo sapiens, UniProt P06276)
- Construct: BChE (EC 3.1.1.8, from human serum)
- Sequence (P06276 29-602): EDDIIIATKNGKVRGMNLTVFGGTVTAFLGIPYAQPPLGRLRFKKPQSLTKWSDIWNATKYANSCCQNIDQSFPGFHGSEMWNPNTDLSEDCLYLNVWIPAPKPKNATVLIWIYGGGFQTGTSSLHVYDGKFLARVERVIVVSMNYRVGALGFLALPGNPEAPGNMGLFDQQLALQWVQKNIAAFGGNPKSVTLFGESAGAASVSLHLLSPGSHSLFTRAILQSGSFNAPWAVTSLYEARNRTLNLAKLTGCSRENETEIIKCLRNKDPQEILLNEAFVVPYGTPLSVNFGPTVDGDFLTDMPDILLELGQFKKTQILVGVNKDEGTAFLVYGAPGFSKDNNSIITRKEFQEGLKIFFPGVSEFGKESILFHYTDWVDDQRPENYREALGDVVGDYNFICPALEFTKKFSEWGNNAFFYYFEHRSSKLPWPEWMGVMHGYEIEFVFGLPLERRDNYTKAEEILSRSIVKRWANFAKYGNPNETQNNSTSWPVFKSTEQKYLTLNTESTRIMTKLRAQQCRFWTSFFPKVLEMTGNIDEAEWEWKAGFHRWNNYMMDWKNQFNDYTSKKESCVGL
- protocol-text: biochemical
- assay-context: mean ± SD of three separate experiments
pIC50: −log10 of the molar value.
Rule: pIC50 under 5 gives rule not met, otherwise rule met.

[
  {
    "molecule": "COC(CNC(=O)c1ccc(CN2CCc3ccccc3C2)cc1)OC",
    "group-label": "rule not met"
  },
  {
    "molecule": "CCN(CC)CCNC(=O)c1ccc(CN2CCc3ccccc3C2)cc1",
    "group-label": "rule not met"
  },
  {
    "molecule": "O=C(c1ccc(CN2CCc3ccccc3C2)cc1)N1CCCC1",
    "group-label": "rule met"
  },
  {
    "molecule": "O=C(NCCN1CCCC1)c1ccc(CN2CCc3ccccc3C2)cc1",
    "group-label": "rule not met"
  },
  {
    "molecule": "O=C(Nc1ccccc1Br)c1ccc(CN2CCc3ccccc3C2)cc1",
    "group-label": "rule met"
  }
]

Quick check, pIC50 >= 5? "O=C(NCc1ccc(F)cc1)c1ccc(CN2CCc3ccccc3C2)cc1"
rule not met

Entry to check: "O=C(c1ccc(CN2CCc3ccc(Br)cc3C2)cc1)N1CCCC1"
rule not met

Entry to check: CCN1CCCC1CNC(=O)c1ccc(CN2CCc3ccccc3C2)cc1 (centres unmarked)
rule not met

====

- system-name: AChE (from human erythrocyte) (Homo sapiens, UniProt P22303)
- Sequence (P22303 other isoform, or with tags, fused parts or gaps): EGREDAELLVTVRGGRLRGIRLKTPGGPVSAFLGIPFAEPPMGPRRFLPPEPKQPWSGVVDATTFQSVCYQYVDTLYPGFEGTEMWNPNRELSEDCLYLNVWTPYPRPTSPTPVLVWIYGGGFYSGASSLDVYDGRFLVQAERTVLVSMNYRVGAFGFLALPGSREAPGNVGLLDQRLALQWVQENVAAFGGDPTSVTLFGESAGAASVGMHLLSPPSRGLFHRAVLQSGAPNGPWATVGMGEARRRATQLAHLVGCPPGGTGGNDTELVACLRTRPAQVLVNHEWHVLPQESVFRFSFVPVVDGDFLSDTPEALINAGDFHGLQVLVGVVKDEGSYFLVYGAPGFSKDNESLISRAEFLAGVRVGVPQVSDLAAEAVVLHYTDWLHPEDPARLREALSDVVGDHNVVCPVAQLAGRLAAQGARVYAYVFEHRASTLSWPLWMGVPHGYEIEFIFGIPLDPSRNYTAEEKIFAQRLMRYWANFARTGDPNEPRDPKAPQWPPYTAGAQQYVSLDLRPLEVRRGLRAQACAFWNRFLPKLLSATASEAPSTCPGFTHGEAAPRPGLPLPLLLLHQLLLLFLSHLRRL
metric: pIC50
Scale note: pIC50 = -log10(concentration in M).

Example entries and their recorded answers appear below.
[
  {
    "test-smiles": "COc1cc2c(cc1OC)CN(Cc1ccc(C(=O)N3CCCC3)cc1)CC2",
    "metric": "pIC50",
    "readout-number": 4.74
  },
  {
    "test-smiles": "COc1ccc2c(c1)CCN(Cc1ccc(C(=O)N3CCCC3)cc1)C2",
    "metric": "pIC50",
    "readout-number": 4.92
  }
]

Turning now to a further compound:
Recorded pIC50 for "O=C(c1ccc(CN2CCc3cc(Br)ccc3C2)cc1)N1CCCC1" , please?
4.51

====

Item-by-item account of AChE IR (%) inhibition ratio
- system-name: AChE (from human erythrocyte) (Homo sapiens, UniProt P22303)
- Construct: AChE (EC 3.1.1.8, from human erythrocyte); purchased Sigma-Aldrich (St. Louis, MO, USA); host or cells: human erythrocyte
- protocol-text: biochemical
- assay-context: at 50 μM
Report the value in % with no unit label.

Example entries and their recorded answers appear below.
[
  {
    "molecule": "O=C(Nc1ccccc1Br)c1ccc(CN2CCc3ccccc3C2)cc1 [Compound 23]",
    "metric": "AChE IR (%) inhibition ratio",
    "readout-number": 22.7
  },
  {
    "molecule": "O=C(c1ccc(CN2CCc3ccccc3C2)cc1)N1CCOCC1 [Compound 10]",
    "metric": "AChE IR (%) inhibition ratio",
    "readout-number": 3.4
  },
  {
    "molecule": "O=C(Nc1ccc(Br)cc1)c1ccc(CN2CCc3ccccc3C2)cc1 [Compound 25]",
    "metric": "AChE IR (%) inhibition ratio",
    "readout-number": 40.6
  }
]

Recorded AChE IR (%) inhibition ratio for CN(C)CCNC(=O)c1ccc(CN2CCc3ccccc3C2)cc1 [Compound 3] , please?
11.4

Entry to check: O=C(Nc1cccc(F)c1)c1ccc(CN2CCc3ccccc3C2)cc1 [Compound 17]
7.7

Entry to check: O=C(NCCc1c[nH]c2ccccc12)c1ccc(CN2CCc3ccccc3C2)cc1 [Compound 28]
8.4

Entry to check: O=C(Nc1cccc(Br)c1)c1ccc(CN2CCc3ccccc3C2)cc1 [Compound 24]
21.6

Entry to check: CCNCCNC(=O)c1ccc(CN2CCc3ccccc3C2)cc1 [Compound 4]
8.8

Entry to check: O=C(NCCN1CCOCC1)c1ccc(CN2CCc3ccccc3C2)cc1 [Compound 6]
13.4

Entry to check: CCN(CC)CCNC(=O)c1ccc(CN2CCc3ccccc3C2)cc1 [Compound 1]
26.6
